- measurement target: [3H]-noradrenaline reuptake (NAT) (Rattus norvegicus, UniProt Q63380)
- Sequence (Q63380 1-617): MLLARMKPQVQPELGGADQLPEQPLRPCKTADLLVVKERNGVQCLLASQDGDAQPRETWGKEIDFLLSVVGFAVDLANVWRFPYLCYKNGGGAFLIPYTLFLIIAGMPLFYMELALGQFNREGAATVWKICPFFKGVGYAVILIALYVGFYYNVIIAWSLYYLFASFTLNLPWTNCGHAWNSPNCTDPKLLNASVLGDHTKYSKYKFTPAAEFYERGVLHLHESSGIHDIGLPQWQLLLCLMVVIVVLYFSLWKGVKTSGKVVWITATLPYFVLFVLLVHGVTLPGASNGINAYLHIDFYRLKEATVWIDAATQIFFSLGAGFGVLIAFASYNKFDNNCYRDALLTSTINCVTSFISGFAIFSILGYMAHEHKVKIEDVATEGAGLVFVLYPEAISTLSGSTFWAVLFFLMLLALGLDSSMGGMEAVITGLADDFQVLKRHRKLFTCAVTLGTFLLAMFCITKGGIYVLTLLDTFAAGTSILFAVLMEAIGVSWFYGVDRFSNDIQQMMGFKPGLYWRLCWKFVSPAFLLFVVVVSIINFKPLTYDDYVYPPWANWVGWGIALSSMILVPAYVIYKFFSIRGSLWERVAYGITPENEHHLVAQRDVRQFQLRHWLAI
- test: inhibition of [3H]-noradrenaline reuptake in rat synaptosomes
reported endpoint: pIC50
Answers are plain numbers, as −log10 of the molar value.

Incoming: What value of pIC50 has been recorded for this entry: Cc1ccc(Sc2ccc(F)c(F)c2C2CCNCC2)c(F)c1 [compound I]
Outgoing: 7.92

---

- measurement target: 5-HT2A receptor (Homo sapiens, UniProt P28223)
- Sequence (P28223 whole entry): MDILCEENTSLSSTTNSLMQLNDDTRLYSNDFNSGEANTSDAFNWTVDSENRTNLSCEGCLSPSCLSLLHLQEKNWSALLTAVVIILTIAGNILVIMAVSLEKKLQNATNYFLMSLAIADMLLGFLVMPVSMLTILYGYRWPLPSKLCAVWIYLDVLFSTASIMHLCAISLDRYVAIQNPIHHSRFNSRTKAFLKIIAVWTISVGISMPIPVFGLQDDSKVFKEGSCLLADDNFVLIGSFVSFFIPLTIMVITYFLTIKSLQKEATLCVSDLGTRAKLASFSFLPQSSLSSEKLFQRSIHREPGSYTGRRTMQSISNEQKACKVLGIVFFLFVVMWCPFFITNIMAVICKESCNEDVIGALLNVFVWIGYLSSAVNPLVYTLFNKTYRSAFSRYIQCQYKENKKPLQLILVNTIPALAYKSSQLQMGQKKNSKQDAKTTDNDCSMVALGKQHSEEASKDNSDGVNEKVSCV
reported endpoint: pKi
Give bare numbers, as −log10 of the molar value.

Incoming: What value of pKi has been recorded for this entry: Cc1ccc(Sc2ccc(F)c(F)c2C2CCNCC2)c(F)c1
Outgoing: 7.89

---

- measurement target: [3H]-serotonin reuptake (SERT) (Rattus norvegicus, UniProt P31652)
- Construct: from tissue
- Sequence (P31652 whole entry): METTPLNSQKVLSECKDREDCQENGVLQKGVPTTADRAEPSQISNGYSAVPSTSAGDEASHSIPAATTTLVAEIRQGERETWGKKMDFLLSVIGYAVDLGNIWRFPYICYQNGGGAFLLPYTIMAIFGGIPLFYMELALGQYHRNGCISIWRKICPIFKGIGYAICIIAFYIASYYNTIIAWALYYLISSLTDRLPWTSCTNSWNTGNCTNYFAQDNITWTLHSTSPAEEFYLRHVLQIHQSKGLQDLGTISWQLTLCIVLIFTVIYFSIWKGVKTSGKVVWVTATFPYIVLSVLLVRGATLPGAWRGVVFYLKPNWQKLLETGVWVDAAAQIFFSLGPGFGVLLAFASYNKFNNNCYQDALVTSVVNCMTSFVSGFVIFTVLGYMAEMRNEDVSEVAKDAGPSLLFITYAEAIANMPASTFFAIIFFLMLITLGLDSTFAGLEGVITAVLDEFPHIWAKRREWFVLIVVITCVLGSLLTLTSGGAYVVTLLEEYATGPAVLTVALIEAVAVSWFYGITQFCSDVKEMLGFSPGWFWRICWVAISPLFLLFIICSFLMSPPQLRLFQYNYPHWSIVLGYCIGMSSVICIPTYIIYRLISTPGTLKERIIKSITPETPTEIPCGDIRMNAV
- test: inhibition of [3H]-serotonin reuptake in rat synaptosomes
- Assay type: biochemical
reported endpoint: IC50 (nM)
Give bare numbers, in nM.

Incoming: What value of IC50 has been recorded for this entry: Cc1ccc(Sc2ccc(F)c(F)c2C2CCNCC2)c(F)c1
Outgoing: 2.4

---

- measurement target: 5-HT2C receptor (Homo sapiens, UniProt P28335)
- Sequence (P28335 33-458): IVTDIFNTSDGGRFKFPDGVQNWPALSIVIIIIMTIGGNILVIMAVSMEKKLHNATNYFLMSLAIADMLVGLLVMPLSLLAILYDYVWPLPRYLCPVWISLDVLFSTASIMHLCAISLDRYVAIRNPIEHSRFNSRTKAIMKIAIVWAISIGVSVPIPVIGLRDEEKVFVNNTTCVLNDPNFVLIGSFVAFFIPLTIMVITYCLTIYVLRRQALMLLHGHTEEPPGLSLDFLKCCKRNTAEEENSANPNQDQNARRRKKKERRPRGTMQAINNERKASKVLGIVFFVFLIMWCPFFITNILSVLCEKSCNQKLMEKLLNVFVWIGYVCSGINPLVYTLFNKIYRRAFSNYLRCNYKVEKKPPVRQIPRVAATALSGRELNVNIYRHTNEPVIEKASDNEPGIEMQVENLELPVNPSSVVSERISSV
reported endpoint: Ki (nM)
One number for each entry, in nM.

Incoming: What value of Ki has been recorded for this entry: Cc1ccc(Sc2ccc(F)c(F)c2C2CCNCC2)c(F)c1 [compound I]
Outgoing: 4.9
